Biological target: T1, recombinant mouse MAdCAM (mouse, UniProt Q61826 22-365)
T1 sequence (looked up): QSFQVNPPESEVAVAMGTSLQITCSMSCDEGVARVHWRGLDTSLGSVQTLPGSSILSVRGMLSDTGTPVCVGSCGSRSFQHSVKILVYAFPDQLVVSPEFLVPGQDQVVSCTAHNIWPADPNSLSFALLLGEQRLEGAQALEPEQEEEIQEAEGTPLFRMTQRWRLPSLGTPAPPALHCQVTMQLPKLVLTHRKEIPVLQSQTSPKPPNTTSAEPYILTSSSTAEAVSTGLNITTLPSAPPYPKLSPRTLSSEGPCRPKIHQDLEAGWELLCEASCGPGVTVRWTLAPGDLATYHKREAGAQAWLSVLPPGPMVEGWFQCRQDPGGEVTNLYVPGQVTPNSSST
Experiment: ELISA
Measurement label: binding result

Below are worked cases with known answers.
Binder	Measured value
anti-MAdCAM monoclonal antibody 7.16.6 (antibody, human IgG2, kappa, V domains shown, Alexa488-labelled in the sandwich ELISA, biotinylated for staining of human sections) VH: QVQLVQSGAEVKKPGASVKVSCKASGYTFTSYGINWVRQAPGQGLEWMGWISVYSGNTNYAQKVQGRVTMTADTSTSTAYMDLRSLRSDDTAVYYCAREGSSSSGDYYYGMDVWGQGTTVTVSS VL: DIVMTQTPLSLSVTPGQPASISCKSSQSLLHTDGTTYLYWYLQKPGQPPQLLIYEVSNRFSGVPDRFSGSGSGTDFTLKISRVEAEDVGIYYCMQNIQLPWTFGQGTKVEIKR	no binding
anti-MAdCAM monoclonal antibody 6.73.2 (antibody, human IgG4, kappa, V domains shown, human IgG4 kappa from hybridoma 6.73.2) VH: EVQLLESGGDLVQPGGSLRLSCAASGFTFRSYAMNWVRQAPGKGLEWVSVISGRGGTTYYADSVKGRFTISRDNSKNTLYLQMNSLRAEDAAVYYCAKIAVAGEGLYYYYGMDVWGQGTTVTVSS VL: DIQMTQSPSSLSASVGDRVTFTCRASQNITNYLNWYQQKPGKAPKLLIYAASSLPRGVPSRFRGSGSGTDFTLTISSLQPEDFATYYCQQSYSNPPECGFGQGTTLDIKR	no binding
anti-MAdCAM monoclonal antibody 6.77.1 (antibody, human IgG4, kappa, V domains shown, human IgG4 kappa from hybridoma 6.77.1) VH: EVQLVESGGGLVKPGGSLRLSCAASGFTFSSYSMNWVRQAPGKGLEWVSSISSSSSYIYYADSVKGRFTISRDNAKNSLYLQMNSLRAEDTAVYYCARDGYSSGWSYYYYYGMDVWGQGTTVTVSS VL: DIVMTQTPLSLSVTPGQPASISCNSSQSLLLSDGKTYLNWYLQKPGQPPQLLIYEVSNRFSGVPDRFSGSGSGTDFTLKISRVEAEDVGVYSCMQSIQLMCSFGQGTKLEIKR	no binding
anti-MAdCAM monoclonal antibody 7.26.4 (antibody, human IgG2, kappa, V domains shown, human IgG2 kappa from hybridoma 7.26.4) VH: QVQLVQSGAEVKKPGASVKVSCEASGYTFTSYGIDWVRQAPGQGLEWMGWISVYSGNTNYAQKLQGRVTMSTDTSTSTAYMELRSLRSDDTAVYYCAREGSSSSGDYYYGMDVWGQGTTVTVSS VL: DIVMTQTPLSLSVTPGQPASISCKSNQSLLYSDGKTYLFWYLQKPGQPPQLLIYEVSNRFSGVPDRFSGSGSGTDFTLKISRVEAEDVGVYYCMQSIQLPWTFGQGTKVEIKR	no binding

// moving on: another record for binding result
Q: # binding result lookup, item anti-MAdCAM monoclonal antibody 9.8.2 (antibody, human IgG4, kappa, V domains shown, human IgG4 kappa from hybridoma 9.8.2) VH: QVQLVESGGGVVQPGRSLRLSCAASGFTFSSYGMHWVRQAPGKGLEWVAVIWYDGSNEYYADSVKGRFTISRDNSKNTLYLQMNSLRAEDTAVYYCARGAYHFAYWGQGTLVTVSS VL: DIQMTQSPSSLSASVGDRVTITCQASQDISNYLNWYQQKPGKAPKLLIYDASNLETGVPSRFSGSGSGTDFTFTISSLQPEDIATYSCQHSDNLSITFGQGTRLEIKR
Ans: no binding
